Measured values drawn from paper PMC12136788 for this set.

Target or test system: T1, UNK ZnF1-3 (human, UniProt Q9C0B0 31-174)
T1 sequence: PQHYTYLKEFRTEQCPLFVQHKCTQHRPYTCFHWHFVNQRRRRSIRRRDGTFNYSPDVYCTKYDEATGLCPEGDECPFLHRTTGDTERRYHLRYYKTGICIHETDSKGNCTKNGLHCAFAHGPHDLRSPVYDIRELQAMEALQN
Test method notes: nsRBNS (natural sequence RNA bind-n-seq); RBNS binding buffer (assumed for nsRBNS): 25 mM Tris pH 7.5, 150 mM KCl, 3 mM MgCl2, 0.01% Triton X-100, 500 ug/ml BSA, 20 U/ml SUPERase-In, 4 C; UNK is unkempt and MSI1 is Musashi-1; names of the RNAs are library labels; protein concentration not given here; high values mean tight binding
In all, about 24,000 sequences were measured (“enrichment r”: median about 0.99, highest 2% from about 3.7 on). These entries were drawn from the full list.
We'd kindly ask you to apply these binding signal classes: bottom range (below 0.8 enrichment R), center range (0.8 enrichment R to below 1 enrichment R), top range (1 enrichment R or more)

chr12:96259795:96259796:+_ENSG00000139343_ENST00000266735|hu_hu|FALSE|FALSE (ssRNA) RNA: GGGAGUUCUACAGUCCGACGAUCAAGGACAUUAUUACACCUUAUUAAAACUUCACCCAGAUGUCCAGACAAAGCUCCAUCUAUGUAUUCUUCUGUAUUUGCAAGCUGCAUGUUCAUGUAGCCAUCUACAGAUACCAGAUAGCCCAACAGAGGAUUGAGCAUCA :: bottom range
chr17:3572670:3572671:+_ENSG00000127774_ENST00000248378|hu_hu|FALSE|FALSE (ssRNA) RNA: GGGAGUUCUACAGUCCGACGAUCGUAGGUGAAGAGGCCCCCGAUGAGGCCUCCUGUAAAGAGAGGUCUCCGUGAUUUGAAAUAUUUGUUCCACCUCCUUCCCGCCUUGAGAAUGAGGAGCAGGGAGAGCAGGACGGAGGCGAGCAACAGAGGAUUGAGCAUCA :: top range
125499526_125499646_756_3pUTR_ENSMUSG00000091337_ENSMUST00000164756|mouse|control|control (ssRNA) RNA: GGGAGUUCUACAGUCCGACGAUCCUGUGAGACCAAAGAGGAACGAUUUGGUCUUUUUCUCCUCGCGAUUCUCAGGUUUAACACUCCUCCUUCCUCGAUUCUCCUUUUCCACAAUGCAUGGUCAUUCACUGUCCCGUCUUCUAUCAACAGAGGAUUGAGCAUCA :: bottom range
chr11:60965468:60965469:-_ENSMUSG00000042506_ENSMUST00000041683|mus_mus|motif|central (ssRNA) RNA: GGGAGUUCUACAGUCCGACGAUCCUAACCACAGUACAAUCAUUGGAUUUUUUUUCCCUCACGAUUUUUUAUUUCAAAGCGGUAAUAAAUGAAACAAACCACUUGUCAAAAAGAACAAUGAUUUUACACAAGGAAAAGCAUACACAACAGAGGAUUGAGCAUCA :: center range
chr1:39494564:39494565:+_ENSG00000168653_ENST00000372967|hu_hu|hu_hu_hu_mus_True|68_78 (ssRNA) RNA: GGGAGUUCUACAGUCCGACGAUCAUGCAUUCGCCUCAUCGUUUUGUACCGAAGCAAACACUCUACGAAAUCAUCAUACUCUAUCUUGCACUCCUUUUUCGCCCGGGUCCCACCGAUCCCGUGUGCACACUCUAUCCACUCUUUCAACAGAGGAUUGAGCAUCA :: bottom range
chr3:49066234:49066235:-_ENSG00000178035_ENST00000326739|hu_hu|FALSE|FALSE (ssRNA) RNA: GGGAGUUCUACAGUCCGACGAUCAGAAGUCAGGUCCACCUGGUCUGCAGUGAAGUCGAUGUACCCAGGGAGAAUGAGAAAGUCAUUGUAGGUGAGGCCGUCUCCGCAGUUGAAGAGCUGCUGUGCUGUGAGUCCGUCGUCUGGCAACAGAGGAUUGAGCAUCA :: top range
chr8:122087627:122087628:-_ENSMUSG00000034189_ENSMUST00000036049|mus_hu|FALSE|FALSE (ssRNA) RNA: GGGAGUUCUACAGUCCGACGAUCUAGUUACAAAAUAAUACUUUUCAGUAGUCUUUCUUGAUGCACAUUUAAAAACCAGCACAACUCCUCUAGUGAAAUGGUCAAUUUCCCUUAAAAAACAACAUCUGAAAUUAUAAGACCUGACAACAGAGGAUUGAGCAUCA :: top range
chr7:28421298:28421299:+_ENSMUSG00000004056_ENSMUST00000051356|mus_hu|FALSE|FALSE (ssRNA) RNA: GGGAGUUCUACAGUCCGACGAUCCAUCAUCUCGUACAUGACCACACCCAGCCCCCACCAGUCCACGGCCCGGCCAUAGUCAUUGUCCUCCAGCACCUCAGGCGCCAGGUACUCCGGGGUCCCACAGAAGGUUUUCAUGGUGGCCAACAGAGGAUUGAGCAUCA :: top range

Challenge: State the class of the binder shown: chr8:104075188:104075189:+_ENSG00000155097_ENST00000518738|hu_hu|motif|central (ssRNA) RNA: GGGAGUUCUACAGUCCGACGAUCCUUCCUAAACAAGGUGACAUUACACAGGUAACUGUCUUGGUCCUCUGAAAGAACAUUGCGGGACCUUGGAACUACCAUUUCGGCUAGUGUUUCAUACUGCUUAAUCCAGUCGUUGUGGUUCAACAGAGGAUUGAGCAUCA
Response given: bottom range

Challenge: Next binder up: chr2:9728443:9728444:-_ENSG00000134308_ENST00000238081|hu_mus|motif|central (ssRNA) RNA: GGGAGUUCUACAGUCCGACGAUCCUGCAUCUCCUUCUUGCUUAUAUCAAACGCCUCUUGGUAGGCUCCUUGGGAAUUUUCGGUUGUUUGUUUUCGAUCAUCGCCACAAGCUACUUCAGCAAGAUACCGGAAAUAAUCUCCCUUCAACAGAGGAUUGAGCAUCA
Response given: center range
